Molecular target: DNA-PK(h) (Homo sapiens, UniProt P78527)
Test: Evaluation of inhibitory activity against DNA-PK (HTRF kinase assay, GST-cMyc-p53 substrate)
Type: biochemical
Settings: compound concentration 0.1 μM; read-out: EXP_VALUE(% Inhibition) DNA-PK(h) 0.1 μM
MEASURE: inhibition at 0.1 µM (%)

Short answer for "C[C@H](Nc1ncnc2[nH]ccc(=O)c12)c1c(Cl)c2cccc(-c3ccc(C(F)(F)F)cc3)c2c(=O)n1-c1ccccc1" : inhibition at 0.1 µM was 73

[a] C[C@H](Nc1ncnc2[nH]ccc(=O)c12)c1c(Cl)c2cccc(N(C)C3CCCCC3)c2c(=O)n1-c1ccccc1
[b] C[C@H](Nc1ncnc2[nH]ccc(=O)c12)c1c(Cl)c2cccc(NC3CCOCC3)c2c(=O)n1-c1ccccc1
**Query** Returns: the argument ( a or b ) having the larger inhibition at 0.1 µM. // return label of chosen record
**Result** b
(b: 33%, a: 21%)

[a] C[C@H](Nc1ncnc2[nH]ccc(=O)c12)c1c(Cl)c2cccc(-c3ccc(C(F)(F)F)cc3Cl)c2c(=O)n1-c1ccccc1
[b] Cc1c[nH]c2ccc(-c3cccc4cc([C@H](C)Nc5ncnc6[nH]ccc(=O)c56)n(-c5ccccc5)c(=O)c34)cc12
**Query** # compare inhibition at 0.1 µM for a vs b ; return the one with the smaller value Reply briefly: the label of your chosen item.
**Result** b

[1] Cc1cc(-c2cccc3c(Cl)c([C@H](C)Nc4ncnc5[nH]ccc(=O)c45)n(-c4ccccc4)c(=O)c23)ccc1F
[2] C[C@H](Nc1ncnc2[nH]ccc(=O)c12)c1c(Cl)c2cccc(C#Cc3ccccc3)c2c(=O)n1-c1ccccc1
**Query** Of 1 and 2 , which one carries the higher reported inhibition at 0.1 µM? Answer by quoting the chosen item's label.
**Result** 1
